Recorded below: MIC, system Salmonella enteritidis Gartner.
Report the value in µg/mL with no unit label.

CO[C@@]1(NC(=O)CSC(C)C#N)C(=O)N2C(C(=O)O)=C(CSc3nnnn3C)CS[C@@H]21 (stereo partly shown) [drawing 8 / drawing 6]: 0.4
CO[C@@]1(NC(=O)CSCN=[N+]=[N-])C(=O)N2C(C(=O)O)=C(CSc3nnnn3C)CS[C@@H]21 [N3 CH2 S / drawing 10]: 0.8
CO[C@@]1(NC(=O)CS(=O)(=O)CCC#N)C(=O)N2C(C(=O)O)=C(CSc3nnnn3C)CS[C@@H]21 [NC(CH2)2 SO2 / drawing 6]: 0.8

Switching to the query record.
Q: Reported MIC, compound C#CCSCC(=O)N[C@]1(OC)C(=O)N2C(C(=O)O)=C(COC(C)=O)CS[C@@H]21 [drawing 14 / OCOCH3] : ____
A: 6.2

----------
System: Staphylococcus aureus (resistant to CP and PC)
Experiment: Minimum Inhibitory Concentration, Staphylococcus aureus (resistant to CP and PC)
Format: cell-based
Conditions: IB: Staphylococcus aureus (resistant to CP and PC)
Recorded MIC by entry
Dear colleague, please send the value followed by its unit.

Below: 4 compounds and their reported MIC.
CO[C@@]1(NC(=O)CSCC#N)C(=O)N2C(C(=O)O)=C(COC(N)=O)CS[C@@H]21: 3.1 µg/mL
C#CCSCC(=O)N[C@]1(OC)C(=O)N2C(C(=O)O)=C(COC(C)=O)CS[C@@H]21 [drawing 14 / OCOCH3]: 6.2 µg/mL
CO[C@@]1(NC(=O)CSCN=[N+]=[N-])C(=O)N2C(C(=O)O)=C(CSc3nnnn3C)CS[C@@H]21 [N3 CH2 S / drawing 10]: 0.4 µg/mL
CO[C@@]1(NC(=O)CSC(C)C#N)C(=O)N2C(C(=O)O)=C(CSc3nnnn3C)CS[C@@H]21 (some centres unmarked) [drawing 8 / drawing 6]: 0.8 µg/mL

Switching to the query record.
Q: # query: MIC | item CO[C@@]1(NC(=O)CSc2ccon2)C(=O)N2C(C(=O)O)=C(CSc3nnnn3C)CS[C@@H]21 [drawing 12 / drawing 10] | system: Staphylococcus aureus (resistant to CP and PC)
A: 0.8 µg/mL

----------
Recorded below: MIC, system Shigella flexneri Komagome.

CO[C@@]1(NC(=O)CSCC#N)C(=O)N2C(C(=O)O)=C(CSc3nnnn3C)CS[C@@H]21 [NCCH2 S / drawing 6]: 0.8 µg/mL
CO[C@@]1(NC(=O)CS(C)(=O)=O)C(=O)N2C(C(=O)O)=C(CSc3nnnn3C)CS[C@@H]21 [CH3 SO2 / drawing 6]: 1.5 µg/mL
CO[C@@]1(NC(=O)CSCC#N)C(=O)N2C(C(=O)O)=C(COC(N)=O)CS[C@@H]21: 3.1 µg/mL

Q: # query: MIC | item CO[C@@]1(NC(=O)CSCCO)C(=O)N2C(C(=O)O)=C(CSc3nnnn3C)CS[C@@H]21 [HOCH2 CH2 S / drawing 6] | system: Shigella flexneri Komagome
A: 1.5 µg/mL

----------
Recorded MIC by entry
Test system: Shigella flexneri Komagome
Dear colleague, please send the value followed by its unit.

Below: 5 molecules and their reported MIC.
CCS(=O)(=O)CC(=O)N[C@]1(OC)C(=O)N2C(C(=O)O)=C(CSc3nnnn3C)CS[C@@H]21 [C2 H5 SO2 / drawing 6]: 1.5 µg/mL
CO[C@@]1(NC(=O)COc2ccon2)C(=O)N2C(C(=O)O)=C(CSc3nnnn3C)CS[C@@H]21 [drawing 11 / drawing 10]: 3.1 µg/mL
CO[C@@]1(NC(=O)CS(=O)(=O)CCC#N)C(=O)N2C(C(=O)O)=C(CSc3nnnn3C)CS[C@@H]21 [NC(CH2)2 SO2 / drawing 6]: 3.1 µg/mL
CO[C@@]1(NC(=O)CSC(C)C#N)C(=O)N2C(C(=O)O)=C(CSc3nnnn3C)CS[C@@H]21 (stereo partly drawn) [drawing 8 / drawing 6]: 1.5 µg/mL
CO[C@@]1(NC(=O)C[n+]2cc([O-])on2)C(=O)N2C(C(=O)O)=C(CSc3nnnn3C)CS[C@@H]21 [drawing 7 / drawing 6]: 1.5 µg/mL

Q: # query: MIC | item CO[C@@]1(NC(=O)CSCN=[N+]=[N-])C(=O)N2C(C(=O)O)=C(COC(C)=O)CS[C@@H]21 | system: Shigella flexneri Komagome
A: 6.2 µg/mL
